# abundance fitness per record follows
B1: SH3 and PX domain-containing protein 2B, residues 155 to 209; numbered along this chain, A1X283 (parent)
chain: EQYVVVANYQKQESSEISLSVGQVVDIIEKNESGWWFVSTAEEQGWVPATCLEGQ

- Variants of: B1
- assay method text: abundance fitness (aPCA) (normalised: wild type 0, dead -1); higher = more abundant; growth selection in yeast, the domain comes from the species named
- condition: Homo sapiens
Give only the figure.

Reference set (10 entries):
>  <chain>
EVYVVVANYQKQESSEISLSVGQVVDIIEKNESGWWFVSTAEEQGWVPATCLEGQ [Q2V]

>  <abundance fitness>
0.012

$$$$
>  <chain>
EQYVVVANYQNQESSEISLSVGQVVDIIEKNESGWWFVSTAEEQGWVPATCLEGQ [K11N]

>  <abundance fitness>
-0.33

$$$$
>  <chain>
EQYVVVANYQKQESSEISLSVGQVVDIIEKNESGWWFVATAEEQGWVPATCLEGQ [S39A]

>  <abundance fitness>
-0.08

$$$$
>  <chain>
EQYVVVANYQKQESSEISLSVGQVVDIIEKNESGWWFVSTAEEQGWVPATCLEGE [Q55E]

>  <abundance fitness>
-0.341

$$$$
>  <chain>
EQYVVVANYQKQESSEISLSVGQVVDIIEKNESGWWFVSTAEEQGWVPAACLEGQ [T50A]

>  <abundance fitness>
-0.052

$$$$
>  <chain>
EQYVVVANYQKQESSEISLSVGQVVDIIERNESGWWFVSTAEEQGWVPATCLEGQ [K30R]

>  <abundance fitness>
-0.049

$$$$
>  <chain>
EQYVVVANYQKQESSEISLSVGQVVDIIEKNESGWWFVSTAEEQGWVPAPCLEGQ [T50P]

>  <abundance fitness>
-0.134

$$$$
>  <chain>
EQYVVVANYQKQESSEISLSVGQVVDIIEKNEEGWWFVSTAEEQGWVPATCLEGQ [S33E]

>  <abundance fitness>
-0.002

$$$$
>  <chain>
EQYVVVANYQKQESSEISLSVGQCVDIIEKNESGWWFVSTAEEQGWVPATCLEGQ [V24C]

>  <abundance fitness>
-0.035

$$$$
>  <chain>
EQYVVVANYQKQESSEISLSVGQVVDIIEKNESGWWFLSTAEEQGWVPATCLEGQ [V38L]

>  <abundance fitness>
-0.736

$$$$

Challenge: // returns reported abundance fitness for input EQYVVVANYQKQESSEISLSVGQVVDIIEKNESYWWFVSTAEEQGWVPATCLEGQ [G34Y]
Response given: -0.492

Challenge: Next: EQYVVVANYQKQESSEISLSVGQVVDIIEKCESGWWFVSTAEEQGWVPATCLEGQ [N31C]
Response given: 0.035
